# credit: patent US5869489A

- system under test: human NK1R (Homo sapiens)
- Construct: expressed in transfected cells
- measurement protocol: Binding assay of human NK1R expressed in COS or CHO cells, displacement of 125I-substance P (Table 1, hNK1)
- measurement context: human NK1 receptor, 125I-substance P ligand; read-out: hNK1 (IC50 nM)
reported endpoint: IC50 (nM)

Look over these answered cases.
structure_smiles=CN(Cc1ccccc1)C(=O)[C@H](Cc1c[nH]c2ccccc12)NC(=O)N1CCC(Cc2ccccc2)CC1 reported_endpoint=IC50 numeric_value=90
structure_smiles=CN(Cc1ccccc1)C(=O)[C@@H](Cc1c[nH]c2ccccc12)NC(=O)N1CCC2(CC1)CN(S(C)(=O)=O)c1ccccc12 reported_endpoint=IC50 numeric_value=200
structure_smiles=CN(Cc1ccccc1)C(=O)[C@H](Cc1ccccc1)NC(=O)N1CCC2(C=Cc3ccccc32)CC1 reported_endpoint=IC50 numeric_value=300
structure_smiles=O=C(OCc1cc(C(F)(F)F)cc(C(F)(F)F)c1)[C@H](Cc1c[nH]c2ccccc12)NC(=O)N1CCC2(C=Cc3ccccc32)CC1 reported_endpoint=IC50 numeric_value=1
structure_smiles=CS(=O)(=O)N1CC2(CCN(C(=O)N[C@@H](Cc3c[nH]c4ccccc34)C(=O)NCc3ccccc3)CC2)c2ccccc21 reported_endpoint=IC50 numeric_value=70

I: CN(Cc1ccccc1)C(=O)[C@@H](NC(=O)N1CCC2(C=Cc3ccccc32)CC1)c1ccccc1
II: Cc1ccccc1CNC(=O)[C@H](Cc1c[nH]c2ccccc12)NC(=O)N1CCC2(CCc3ccccc32)CC1
III: Cc1ccccc1N1CCN(C(=O)N[C@@H](Cc2c[nH]c3ccccc23)C(=O)N(C)Cc2ccccc2)CC1
IV: CN(Cc1cccc(C(F)(F)F)c1)C(=O)[C@H](Cc1c[nH]c2ccccc12)NC(=O)N1CCC2(CC1)CN(S(C)(=O)=O)c1ccccc12
*Q* Rank the items in ascending order with respect to IC50. API: response body holds the labels in the requested order.
*A* IV, III, II, I

====

- system under test: human NK2 receptor (Homo sapiens, UniProt P21452)
- Construct: expressed in transfected cells
- measurement protocol: Binding assay of NK2 receptor expressed in COS or CHO cells, displacement of 125I-NKA (Table 1, hNK2)
- measurement context: human NK2 receptor, 125I-NKA ligand; read-out: hNK2 (IC50 nM)
reported endpoint: IC50 (nM)

1: O=C(NCCc1ccccc1)[C@H](Cc1c[nH]c2ccccc12)NC(=O)N1CCC2(CCc3ccccc32)CC1
2: Cc1cccc(CN(C)C(=O)[C@H](Cc2c[nH]c3ccccc23)NC(=O)N2CCC3(CC2)CN(S(C)(=O)=O)c2ccccc23)c1
3: C[C@@H](NC(=O)[C@H](Cc1c[nH]c2ccccc12)NC(=O)N1CCC2(CCc3ccccc32)CC1)c1ccccc1
*Q* Put the items in sequence by IC50, from largest down. API: response body holds the labels in the requested order.
*A* 2, 1, 3
(2: 85 nM, 1: 56 nM, 3: 28 nM)

====

- system under test: human NK2 receptor (Homo sapiens, UniProt P21452)
- Construct: expressed in transfected cells
- Sequence (P21452 1-398): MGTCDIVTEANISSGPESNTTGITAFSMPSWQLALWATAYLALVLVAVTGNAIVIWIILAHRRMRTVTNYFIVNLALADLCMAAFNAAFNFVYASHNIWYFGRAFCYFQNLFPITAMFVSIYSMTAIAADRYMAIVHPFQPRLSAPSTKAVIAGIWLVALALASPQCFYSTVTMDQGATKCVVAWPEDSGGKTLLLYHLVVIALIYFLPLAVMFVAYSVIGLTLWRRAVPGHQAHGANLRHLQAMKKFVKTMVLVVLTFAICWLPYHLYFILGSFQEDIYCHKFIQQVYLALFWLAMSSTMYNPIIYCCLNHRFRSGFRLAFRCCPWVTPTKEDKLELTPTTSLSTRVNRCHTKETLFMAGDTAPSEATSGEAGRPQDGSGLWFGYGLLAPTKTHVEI
- measurement protocol: Binding assay of NK2 receptor expressed in COS or CHO cells, displacement of 125I-NKA (Table 1, hNK2)
- measurement context: human NK2 receptor, 125I-NKA ligand; read-out: hNK2 (IC50 nM)
reported endpoint: IC50 (nM)

Look over these answered cases.
structure_smiles=CN(Cc1ccccc1)C(=O)[C@H](Cc1c[nH]c2ccccc12)NC(=O)N1CCC2(CCc3ccccc32)CC1 reported_endpoint=IC50 numeric_value=8
structure_smiles=Cc1ccc(CNC(=O)[C@H](Cc2c[nH]c3ccccc23)NC(=O)N2CCC3(CCc4ccccc43)CC2)cc1 reported_endpoint=IC50 numeric_value=200
structure_smiles=CN(Cc1ccccc1)C(=O)[C@H](Cc1ccccc1)NC(=O)N1CCC2(C=Cc3ccccc32)CC1 reported_endpoint=IC50 numeric_value=200
structure_smiles=CN(Cc1ccccc1)C(=O)[C@H](Cc1c[nH]c2ccccc12)NC(=O)N1CCC2(CC1)CN(S(C)(=O)=O)c1ccccc12 reported_endpoint=IC50 numeric_value=12
structure_smiles=CN(Cc1ccccc1)C(=O)[C@@H](Cc1c[nH]c2ccccc12)NC(=O)N1CCC2(CC1)CN(S(C)(=O)=O)c1ccccc12 reported_endpoint=IC50 numeric_value=180

P: CN(Cc1cccc(C(F)(F)F)c1)C(=O)[C@H](Cc1c[nH]c2ccccc12)NC(=O)N1CCC2(CC1)CN(S(C)(=O)=O)c1ccccc12
Q: O=C(NCc1ccccc1)[C@H](Cc1c[nH]c2ccccc12)NC(=O)N1CCC2(CCc3ccccc32)CC1
R: Cc1ccccc1N1CCN(C(=O)N[C@@H](Cc2c[nH]c3ccccc23)C(=O)N(C)Cc2ccccc2)CC1
S: CN(Cc1ccccc1)C(=O)[C@H](CCc1ccccc1)NC(=O)N1CCC2(CC1)CN(S(C)(=O)=O)c1ccccc12
*Q* Rank the items in ascending order with respect to IC50. API: response body holds the labels in the requested order.
*A* R, Q, S, P
(R: 15 nM, Q: 35 nM, S: 60 nM, P: 127 nM)

====

- system under test: human NK1R (Homo sapiens, UniProt P25103)
- Construct: expressed in transfected cells
- Sequence (P25103 whole entry): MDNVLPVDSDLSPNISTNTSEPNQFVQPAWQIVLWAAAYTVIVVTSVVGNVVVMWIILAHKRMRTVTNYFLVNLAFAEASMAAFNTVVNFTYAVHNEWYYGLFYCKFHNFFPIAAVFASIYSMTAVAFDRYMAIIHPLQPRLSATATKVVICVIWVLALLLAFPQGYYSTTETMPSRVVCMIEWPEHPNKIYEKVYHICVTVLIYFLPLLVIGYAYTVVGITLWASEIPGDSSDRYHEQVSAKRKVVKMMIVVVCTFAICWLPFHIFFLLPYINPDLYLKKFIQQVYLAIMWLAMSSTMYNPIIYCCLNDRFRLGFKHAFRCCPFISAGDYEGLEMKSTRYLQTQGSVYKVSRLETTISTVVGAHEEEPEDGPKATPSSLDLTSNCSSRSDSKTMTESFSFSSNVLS
- measurement protocol: Binding assay of human NK1R expressed in COS or CHO cells, displacement of 125I-substance P (Table 1, hNK1)
- measurement context: human NK1 receptor, 125I-substance P ligand; read-out: hNK1 (IC50 nM)
reported endpoint: IC50 (nM)

Look over these answered cases.
compound="CN(Cc1ccccc1)C(=O)[C@@H](Cc1c[nH]c2ccccc12)NC(=O)N1CCC2(C=Cc3ccccc32)CC1 [Example 31]" numeric_value=600
compound="CN(Cc1ccccc1)C(=O)[C@H](Cc1c[nH]c2ccccc12)NC(=O)N1CCC2(CCc3ccccc32)CC1 [Example 4]" numeric_value=50
compound="Cc1cccc(CNC(=O)[C@H](Cc2c[nH]c3ccccc23)NC(=O)N2CCC3(CCc4ccccc43)CC2)c1 [Example 17]" numeric_value=60
compound="Cc1cccc(CN(C)C(=O)[C@H](Cc2c[nH]c3ccccc23)NC(=O)N2CCC3(CC2)CN(S(C)(=O)=O)c2ccccc23)c1 [Example 25]" numeric_value=8
compound="Cc1cc(C)cc(CN(C)C(=O)[C@H](Cc2c[nH]c3ccccc23)NC(=O)N2CCC3(CC2)CN(S(C)(=O)=O)c2ccccc23)c1 [Example 28]" numeric_value=3
compound="CN(Cc1ccccc1)C(=O)[C@H](CCc1ccccc1)NC(=O)N1CCC2(CC1)CN(S(C)(=O)=O)c1ccccc12 [Example 34]" numeric_value=400

P: C[C@@H](NC(=O)[C@H](Cc1c[nH]c2ccccc12)NC(=O)N1CCC2(CCc3ccccc32)CC1)c1ccccc1 [Example 22]
Q: CN(Cc1ccccc1)C(=O)[C@H](COCc1ccccc1)NC(=O)N1CCC2(CC1)CN(S(C)(=O)=O)c1ccccc12 [Example 35]
*Q* Lower value for measured IC50? Options: P , Q // caller expects the label of the chosen entry
*A* Q

====

- system under test: human NK2 receptor (Homo sapiens, UniProt P21452)
- Construct: expressed in transfected cells
- measurement protocol: Binding assay of NK2 receptor expressed in COS or CHO cells, displacement of 125I-NKA (Table 1, hNK2)
- measurement context: human NK2 receptor, 125I-NKA ligand; read-out: hNK2 (IC50 nM)
reported endpoint: IC50 (nM)

Look over these answered cases.
structure_smiles=CCN(Cc1ccccc1)C(=O)[C@H](Cc1c[nH]c2ccccc12)NC(=O)N1CCC2(CCc3ccccc32)CC1 numeric_value=25
structure_smiles=COc1ccccc1N1CCN(C(=O)N[C@@H](Cc2c[nH]c3ccccc23)C(=O)N(C)Cc2ccccc2)CC1 numeric_value=25
structure_smiles=Cc1cc(Cl)cc(CN(C)C(=O)[C@H](Cc2c[nH]c3ccccc23)NC(=O)N2CCC3(CC2)CN(S(C)(=O)=O)c2ccccc23)c1 numeric_value=500

P: CN(Cc1ccccc1)C(=O)[C@@H](Cc1c[nH]c2ccccc12)NC(=O)N1CCC2(C=Cc3ccccc32)CC1
Q: Cc1cccc(CNC(=O)[C@H](Cc2c[nH]c3ccccc23)NC(=O)N2CCC3(CCc4ccccc43)CC2)c1
R: O=C(Nc1ccccc1)[C@H](Cc1c[nH]c2ccccc12)NC(=O)N1CCC2(CCc3ccccc32)CC1
S: CN(Cc1ccccc1)C(=O)[C@H](Cc1c[nH]c2ccccc12)NC(=O)N1CCC(Cc2ccccc2)CC1
T: CN(Cc1ccccc1)C(=O)[C@@H](NC(=O)N1CCC2(C=Cc3ccccc32)CC1)c1ccccc1
*Q* Kindly order the items shown according to IC50, from the highest value down. API: response body holds the labels in the requested order.
*A* R, T, P, Q, S
(R: 650 nM, T: 200 nM, P: 130 nM, Q: 65 nM, S: 25 nM)
